A set of compounds tested on Glycogen synthase kinase-3 beta (Homo sapiens, UniProt P49841), with measured IC50:
Property Name: IC50

Compound	Test Result
CCC1(c2cccc(C3=CN=NC3)c2)C2=C(CC(C)(C)NC2=O)NC2N=NC(C)=C21 (stereo not drawn)	< 100 nM
CCC1(c2cccc(N(C)C(=O)c3ccn(C)n3)c2)C2=CN=NC2NC2=C1C(=O)CC(C)(C)C2 (stereo not drawn)	100 to 1000 nM
CC[C@]1(c2cccc(-c3ccnc(C)c3C)c2)C2=C(CC(C)(C)CC2=O)NC2N=NC(C(F)(F)F)=C21 (stereo partly drawn)	100 to 1000 nM

====

Quick record: IC50, Glycogen synthase kinase-3 beta (Homo sapiens, UniProt P49841).

Compound	Target Of Assay	IC50
C[C@@H]1C[C@]2(CCN1S(C)(=O)=O)C1=CN=NC1NC1=C2C(=O)CC(C)(C)C1 (some centres not stated)	Glycogen synthase kinase-3 beta (Homo sapiens, UniProt P49841)	100 to 1000 nM
CC[C@@]1(c2cccc(-c3ccncc3F)c2)C2=C(CC(C)(C)CC2=O)NC2N=NC(C)=C21 (some centres not stated)	Glycogen synthase kinase-3 beta (Homo sapiens, UniProt P49841)	100 to 1000 nM
CCC1(c2cccc(N(C)c3ccccn3)c2)C2=CN=NC2NC2=C1C(=O)CC(C)(C)C2 (configuration not stated)	Glycogen synthase kinase-3 beta (Homo sapiens, UniProt P49841)	100 to 1000 nM
CCC1(c2cccc(N(C)c3ccncc3)c2)C2=CN=NC2NC2=C1C(=O)CC(C)(C)C2 (configuration not stated)	Glycogen synthase kinase-3 beta (Homo sapiens, UniProt P49841)	1000 to 5000 nM
CC1(C)CC(=O)C2=C(C1)NC1=C(CN=N1)C21CCN(S(=O)(=O)c2ccc(Cl)cc2)CC1	Glycogen synthase kinase-3 beta (Homo sapiens, UniProt P49841)	< 100 nM
CC1(C)CC(=O)C2=C(C1)NC1=C(CN=N1)C21CCC2(CC2)CC1	Glycogen synthase kinase-3 beta (Homo sapiens, UniProt P49841)	< 100 nM
CC[C@]1(c2cccc(-c3cnn(C)c3)c2)C2=C(N=NC2)NC2=C1C(=O)C(C)(C)C2	Glycogen synthase kinase-3 beta (Homo sapiens, UniProt P49841)	1000 to 5000 nM

====

// Glycogen synthase kinase-3 alpha (Homo sapiens, UniProt P49840) pIC50 records
pIC50: −log10 of the molar value.

Molecule	pIC50
CC1(C)CC(=O)C2=C(C1)NC1=C(CN=N1)[C@@]2(C)c1cccc(-c2ccccc2)c1	< 5.30
CC(C)C1CC(C(=O)N2CC3(C2)CC2(CO3)C3=C(N=NC3)NC3=C2C(=O)CC(C)(C)C3)C1 (stereo not given)	> 7.00
CC1(C)CC(=O)C2=C(C1)NC1=C(CN=N1)C21CCN(S(=O)(=O)c2cnn3c2OCCC3)CC1	> 7.00
CC[C@@]1(c2ccccc2)C2=CN=NC2NC2=C1C(=O)[C@@H](C)C[C@@H]2C (stereo not given in full)	6.00 to 7.00
CCC1(c2cccc(-c3cn(C)nc3C)c2)C2=C(CC(C)(C)NC2=O)NC2N=NC(F)=C21 (stereo not given)	> 7.00
CC[C@@]1(c2cccc(-c3c([N+](=O)O)c(C)nn3C)c2)C2=CN=NC2NC2=C1C(=O)NC(C)(C)C2 (stereo not given in full)	> 7.00
CC[C@@]1(c2cccc(N(C)c3ncccn3)c2)C2=CN=NC2NC2=C1C(=O)NC(C)(C)C2 (stereo not given in full) [US20250313563, Compound 949179]	6.00 to 7.00
CC[C@@]1(c2cccc(-c3cnn4c3CCCC4)c2)C2=C(CC(C)(C)NC2=O)NC2N=NC(C)=C21 (stereo not given in full)	> 7.00
CC[C@]1(c2cccc(S(C)(=O)=O)c2)C2=C(CC(C)(C)NC2=O)NC2N=NC(C(F)(F)F)=C21 (stereo not given in full)	> 7.00
CC(C)n1cc(S(=O)(=O)N2CCC3(CC2)C2=C(N=NC2)NC2=C3C(=O)CC(C)(C)C2)cn1	> 7.00
CC[C@@]1(c2cccc(-n3ccnc3)c2)C2=CN=NC2NC2=C1C(=O)CC(C)(C)C2 (stereo not given in full)	6.00 to 7.00
CC1(C)CC(=O)C2=C(C1)NC1=C(CN=N1)[C@@]21CCCN(S(=O)(=O)C2CC2)CC1	> 7.00
CC[C@]1(c2cccc(-c3cnn(C)c3)c2)C2=C(CC(C)(C)CC2=O)NC2N=NC(C(F)(F)F)=C21 (stereo not given in full)	> 7.00
CC1(C)CC(=O)C2=C(C1)NC1=C(CN=N1)[C@@]21CCOC2(CCOCC2)C1	6.00 to 7.00
CCC1(c2cccc(-c3cnn(C)c3C)c2)C2=C(CC(C)(C)NC2=O)NC2N=NC(C(F)(F)F)=C21 (stereo not given)	> 7.00
CC[C@@]1(c2cccc(-c3cnc(C)n3C)c2)C2=CN=NC2NC2=C1C(=O)CC(C)(C)C2 (stereo not given in full)	5.30 to 6.00
CC[C@]1(c2cccc(-c3cnnc(C)c3)c2)C2=CN=NC2NC2=C1C(=O)NC(C)(C)C2 (stereo not given in full)	5.30 to 6.00
CC1(C)CC(=O)C2=C(C1)NC1=C(CN=N1)[C@@]21CCCOCC1	6.00 to 7.00
CC[C@@]1(c2cccc(-c3cc(OC)ncc3F)c2)C2=CN=NC2NC2=C1C(=O)NC(C)(C)C2 (stereo not given in full)	> 7.00
CC[C@@]1(c2cccc(-c3cnn4c3CCCC4)c2)C2=C(CC(C)(C)CC2=O)NC2N=NC(C)=C21 (stereo not given in full)	6.00 to 7.00
CC[C@]1(c2cccc(-c3ccnc(C)c3C)c2)C2=C(CC(C)(C)NC2=O)NC2N=NC(C)=C21 (stereo not given in full)	5.30 to 6.00
CCC1(c2cccc(-c3ccnc(OC)n3)c2)C2=CN=NC2NC2=C1C(=O)CC(C)(C)C2 (stereo not given)	> 7.00
Cc1ccc(C(=O)N2CC3(C2)CC2(CO3)C3=C(N=NC3)NC3=C2C(=O)CC(C)(C)C3)c(C)c1 (stereo not given)	> 7.00
Cn1ccc(S(=O)(=O)N2CCCC3(CC2)C2=CN=NC2NC2=C3C(=O)CC(C)(C)C2)n1 (stereo not given)	> 7.00
CC[C@]1(c2cccc(-c3ccncc3C)c2)C2=CN=NC2NC2=C1C(=O)NC(C)(COC)C2 (stereo not given in full)	6.00 to 7.00
